# System Tested: Protein-glutamine gamma-glutamyltransferase (Homo sapiens, UniProt P21980)
# Sequence (P21980 whole entry): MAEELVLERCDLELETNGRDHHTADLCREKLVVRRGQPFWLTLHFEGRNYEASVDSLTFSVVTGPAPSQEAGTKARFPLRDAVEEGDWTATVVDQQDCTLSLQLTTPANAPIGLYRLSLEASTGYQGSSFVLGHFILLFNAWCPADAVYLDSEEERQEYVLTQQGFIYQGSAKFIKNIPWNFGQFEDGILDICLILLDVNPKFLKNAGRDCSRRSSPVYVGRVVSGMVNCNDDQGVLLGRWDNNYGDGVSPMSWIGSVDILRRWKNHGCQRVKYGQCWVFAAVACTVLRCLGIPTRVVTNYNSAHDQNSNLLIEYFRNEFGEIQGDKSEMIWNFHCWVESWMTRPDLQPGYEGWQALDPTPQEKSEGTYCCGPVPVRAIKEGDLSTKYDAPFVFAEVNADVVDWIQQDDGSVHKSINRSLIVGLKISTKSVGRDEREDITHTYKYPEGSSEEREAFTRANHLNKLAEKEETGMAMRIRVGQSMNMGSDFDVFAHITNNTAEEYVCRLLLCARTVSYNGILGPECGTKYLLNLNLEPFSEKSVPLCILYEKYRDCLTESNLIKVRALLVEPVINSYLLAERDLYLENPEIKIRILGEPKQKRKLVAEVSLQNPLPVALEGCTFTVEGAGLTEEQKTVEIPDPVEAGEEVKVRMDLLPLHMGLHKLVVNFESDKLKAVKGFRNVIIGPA
# Protocol Text: Inhibition of recombinant human TG2 expressed in Escherichia coli assessed as inhibition constant using Cbz-Glu(gamma-p-nitrophenyl ester)Gly (AL5) as substrate by colorimetric assay
Property: Ki (µM)

Worked cases, answers included:
[
  {
    "Substance Smiles": "C=CC(=O)NCCCCCC(=O)N1CCN(C(=O)C23CC4CC(CC(C4)C2)C3)CC1",
    "Property": "Ki",
    "Measured Result": 38
  },
  {
    "Substance Smiles": "C=CC(=O)NCCCCC(=O)N1CCN(S(=O)(=O)c2cccc3c(N(C)C)cccc23)CC1",
    "Property": "Ki",
    "Measured Result": 42
  }
]

A: C=CC(=O)NCCCCC(=O)N1CCN(C(=O)C23CC4CC(CC(C4)C2)C3)CC1
B: C=CC(=O)NCCCC(=O)N1CCN(C(=O)c2cccc3ccccc23)CC1
INPUT: Lowest Ki? choose A or B # reply format: chosen label
OUTPUT: A
